The reader will find reported reporter gene assay IC50 values listed item by item below.
# tested-on: human PDL1 expressed on cells (human, UniProt Q9NZQ7 19-290)
# measurement-notes: cell-based or functional assay
quantity-name: reporter gene assay IC50

• PRO997/PRO908 (37-20-B03-sc01 scFv) (scFv, VL-linker-VH, VH4 CDR graft; PRO997 was made in CHO-S cells, PRO908 in bacteria; also called 37-20-B03 CDR) scFv: DIQMTQSPSSLSASVGDRVTITCQASQSIGTYLAWYQQKPGKAPKLLIYRAFILASGVPSRFSGSGSGTDFTLTISSLQPEDFATYYCQSNFYSDSTTIGPNAFGTGTKVTVLGGGGGSGGGGSGGGGSGGGGSQVQLQESGPGLVKPSETLSLTCKVSGFSFNSDYWIYWIRQPPGKGLEWIGSIYGGSSGNTQYASWAQGRVTISVDSSKNQFSLKLSSVTAADTAVYYCARGYVDYGGATDLWGQGTLVTVSS = 8.02 ng/mL
• PRO1392 (33-03-G02-sc18 scFv) (scFv) scFv: DIQMTQSPSSLSASVGDRVTITCQASQSINDYLAWYQQKPGKAPKLLIYKASTLASGVPSRFSGSGSGTDFTLTISSLQPEDFATYYCQQGYIITDIDNVFGTGTKVTVLGGGGGSGGGGSGGGGSGGGGSQVQLQESGPGLVKPSETLSLTCKASGFSFSSGYDMCWVRQPPGKGLEWIACVVAGSVDITYYASWAKGRVTISKDSSKNQVSLKLSSVTAADTAVYYCARKDAYSDAFNLWGQGTLVTVSS = 12 ng/mL
• PRO830 (33-03-G02-sc01 scFv) (scFv, also called 33-03-G02 CDR) scFv: DIQMTQSPSSLSASVGDRVTITCQASQSINDYLAWYQQKPGKAPKLLIYKASTLASGVPSRFSGSGSGTDFTLTISSLQPEDFATYYCQQGYIITDIDNVFGTGTKVTVLGGGGGSGGGGSGGGGSGGGGSQVQLQESGPGLVKPSETLSLTCKVSGFSFSSGYDMCWIRQPPGKGLEWIGCVVAGSVDITYYASWAKGRVTISVDSSKNQFSLKLSSVTAADTAVYYCARKDAYSDAFNLWGQGTLVTVSS = 37.5 ng/mL
• PRO1347 (37-20-B03-sc09 scFv) (scFv) DIQMTQSPASLSASVGDRVTITCQASQSIGTYLAWYQQKPGKPPKLLIYRAFILASGVPSRFSGSGSGTDFTLTISSLQPEDFATYYCQSNFYSDSTTIGPNAFGTGTKVTVLGGGGGSGGGGSGGGGSGGGGSEVQLVESGGGLVQPGGSLRLSCAASGFSFNSDYWIYWVRQAPGKGLEWIACIYGGSSGNTQYASWAQGRFTISRDNSKNTVYLQMNSLRAEDTAVYFCARGYVDYGGATDLWGQGTLVTVSS = 7.53 ng/mL

Data origin: patent US20200283528A1
